- Protocol summary: In vivo pharmacokinetic experiment in CD-1 mice
- Condition context: mouse, plasma, iv; CD-1 female mice, injection (1 mg/kg)

# Molecule, AUC(0-t), ng·h/mL
records = [
    ("COc1cc(N2CC3(CCN(C)CC3)C2)ccc1Nc1ncc(C(F)(F)F)c(Oc2cccc3c2C(=O)N(C)C32CC2)n1 [Compound 79]", 883),
    ("COc1cc(N2CCN(C)CC2)ccc1Nc1ncc(C(F)(F)F)c(Oc2cccc3c2C(=O)N(C)C32CC2)n1 [Compound 73]", 414),
    ("COc1cc(C(=O)NC2CCN(C)CC2)c(F)cc1Nc1ncc(C(F)(F)F)c(Oc2cccc3c2C(=O)N(C)C32CC2)n1 [Compound 4]", 489),
    ("COc1cc(C(=O)NC2CCN(C)CC2)c(F)cc1Nc1ncc(Cl)c(Oc2cccc3c2C(=O)N(C)C32CC2)n1 [Compound 117]", 640),
    ("COc1cc(N2CC3(CCN(C)CC3)C2)c(F)cc1Nc1ncc(Cl)c(Oc2cccc3c2C(=O)N(C)C32CC2)n1 [Compound 137]", 1390),
    ("COc1cc(N2CC3(CCN(C)CC3)C2)ccc1Nc1ncc(Br)c(Oc2cccc3c2C(=O)N(C)C32CC2)n1 [Compound 177]", 1110),
    ("COc1cc(N2CC3(CCN(C)CC3)C2)ccc1Nc1ncc(Cl)c(Oc2cccc3c2C(=O)N(C)C32CC2)n1 [Compound 136]", 1110),
    ("COc1cc(N2CC3(CCN(C)CC3)C2)c(F)cc1Nc1ncc(C(F)(F)F)c(Oc2cccc3c2C(=O)N(C)C32CC2)n1 [Compound 120]", 850),
]
